Measured IC50 by item
# subject_of_test: Bcl-2 (Homo sapiens)
# assay_comment: Homogeneous HTS assay for inhibitors of the Bcl-2 : Bak (72-87) BH3 domain interaction, fluorescence polarisation (2D-FIDA)
# Assay type: binding
# experimental_conditions: fluorescence polarisation, fluorescent labelled Bak BH3 domain derived peptide; read-out: IC50 [μM] Bcl-2

>  <compound>
Cc1ccccc1Cn1c(=N)n(CCCOc2ccccc2)c2ccccc21

>  <IC50>
11 to 100 µM

$$$$
>  <compound>
N=c1n(CCCOc2ccc(F)cc2)c2ccccc2n1Cc1ccc(CN2CCN(c3ccccc3Cl)CC2)cc1

>  <IC50>
11 to 100 µM

$$$$
>  <compound>
N=c1n(Cc2ccccc2Cl)c2ccccc2n1CC(O)COc1ccccc1 (stereo not shown)

>  <IC50>
> 100 µM

$$$$
>  <compound>
N=c1n(CCCOc2cccc(C(=O)O)c2)c2ccccc2n1Cc1ccc(Br)cc1

>  <IC50>
11 to 100 µM

$$$$

----------
# subject_of_test: Bcl-2 (Homo sapiens, UniProt P10415)
# Sequence (P10415 whole entry, species assumed, the tested form may be a part): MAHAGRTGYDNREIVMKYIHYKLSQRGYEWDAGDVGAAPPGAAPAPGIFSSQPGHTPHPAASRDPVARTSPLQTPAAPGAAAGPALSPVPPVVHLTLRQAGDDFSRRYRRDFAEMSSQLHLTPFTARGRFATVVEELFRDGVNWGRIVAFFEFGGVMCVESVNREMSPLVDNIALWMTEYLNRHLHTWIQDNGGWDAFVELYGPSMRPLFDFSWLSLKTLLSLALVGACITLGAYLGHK
# assay_comment: Homogeneous HTS assay for inhibitors of the Bcl-2 : Bak (72-87) BH3 domain interaction, fluorescence polarisation (2D-FIDA)
# Assay type: binding
# experimental_conditions: fluorescence polarisation, fluorescent labelled Bak BH3 domain derived peptide; read-out: IC50 [μM] Bcl-2
Measured IC50 by item
readout: IC50

>  <molecule_smiles>
CCOC(=O)c1cccc(OCCCn2c(=N)n(Cc3cccc(Br)c3)c3ccccc32)c1

>  <reported_value>
11 to 100 µM

$$$$
>  <molecule_smiles>
CCOC(=O)c1cccc(OCCCn2c(=N)n(Cc3ccc(N4CCN(Cc5ccccc5-c5ccccc5)CC4)cc3)c3ccccc32)c1

>  <reported_value>
< 10 µM

$$$$
>  <molecule_smiles>
Cc1ccc2c(c1)n(Cc1ccc(Br)cc1)c(=N)n2CCCOc1ccc(F)cc1

>  <reported_value>
11 to 100 µM

$$$$

----------
# subject_of_test: Bcl-2 (Homo sapiens)
# assay_comment: Homogeneous HTS assay for inhibitors of the Bcl-2 : Bak (72-87) BH3 domain interaction, fluorescence polarisation (2D-FIDA)
# Type: binding
# experimental_conditions: fluorescence polarisation, fluorescent labelled Bak BH3 domain derived peptide; read-out: IC50 [μM] Bcl-2

>  <compound>
N=c1n(CCCOc2ccccc2)c2ccccc2n1Cc1cccc(N2CCN(Cc3ccccc3-c3ccccc3)CC2)c1

>  <IC50>
< 10 µM

$$$$
>  <compound>
COC(=O)c1ccc(OCCCn2c(=N)n(Cc3ccc(Br)cc3)c3ccccc32)cc1

>  <IC50>
11 to 100 µM

$$$$
>  <compound>
Cc1ccc2c(c1)n(Cc1ccc(N3CCN(Cc4ccccc4-c4ccccc4)CC3)cc1)c(=N)n2CCCOc1ccc(F)cc1

>  <IC50>
< 10 µM

$$$$
>  <compound>
CC(C)(C)c1ccc(Cn2c(=N)n(CC(O)COc3ccccc3)c3ccccc32)cc1 (stereo not drawn)

>  <IC50>
11 to 100 µM

$$$$
>  <compound>
N=c1n(Cc2ccc(Br)cc2)c2ccccc2n1CC1COc2ccccc2O1 (stereo not drawn)

>  <IC50>
11 to 100 µM

$$$$
>  <compound>
N=c1n(CCCOc2ccc(F)cc2)c2ccccc2n1Cc1csc(N2CCN(Cc3ccccc3-c3ccccc3)CC2)n1

>  <IC50>
< 10 µM

$$$$
